- Test Summary: luminescence decrease from intact luciferase reporter – cell-based, single concentration, SaOS-2, counter-screen for Mdm2/MdmX interaction inhibitor project, confirmation (AID 504607);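 also: p53-null SaOS-2 cells with luciferase driven by a doxycycline-inducible promoter; compound on cells about two nights before reading with doxycycline added after day one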
- Condition Context: SaOS-2 full-length luciferase counterscreen, at 8 µM, stronger effect = higher value
The campaign covered roughly 6,200 compounds. About 4,800 (77%) were called active. So high a share suggests a set chosen from earlier hits. The list is a sample of the results.
Binary classification by inhibition, with 80% as an inclusive lower bound for satisfied; all other cases are not satisfied.

Identify whether the reported inhibition of the following compound is 80% or greater: `COC(=O)C1=C(c2ccc(F)cc2OCc2ccccc2)C[C@@H]2CC[C@H]1N2C(=O)NCc1ccc2[nH]ccc2c1`
satisfied

Determine whether this compound has inhibition no lower than 80%: `CCOc1ccc(-c2cc(C)[n+](CCN(CC)CC)c(-c3ccc(OCC)cc3)c2)cc1`
not satisfied

For this compound, is measured inhibition 80% or higher? `CNC(=O)O/N=C(\N)Cc1csc2ccc(Cl)cc12`
satisfied

Exam item: decide whether the reported inhibition for O=C1C2(Cl)C3(Cl)C4(Cl)C(Cl)(Cl)C5(Cl)C3(Cl)C1(Cl)C5(Cl)C24Cl (configuration not stated) is at least 80%.
not satisfied

Kindly determine if inhibition recorded for `CCCCCCCCCCCCn1ccc(=N)cc1` is above or exactly 80%.
not satisfied

Item `O=C1NC(=O)N(CCc2ccc(F)cc2)C(=O)/C1=C/C=C/c1ccccc1` with inhibition of 80% or above?
satisfied
